As shown below, each of these molecules has a reported CD28 Fold change to WT CD80 value.
test-system: CD28 (Homo sapiens, UniProt P10747)
assay-name: Flow binding to Jurkat/IL2 reporter cells (CD28)
Set-up: host or cells: Jurkat cells expressing an IL-2-luciferase reporter
assay-context: Table E11; 33.3 nM; listed as WT CD80 ECD-Fc = 1.0

>  <molecule>
T13R/Q33L/E35D/M47L/V68M/L85M (protein, UniProt P33681 35-288, looked up, variant T13R Q33L E35D M47L V68M L85M) T-lymphocyte activation …: VIHVTKEVKEVARLSCGHNVSVEELAQTRIYWLKDKKMVLTMMSGDLNIWPEYKNRTIFDITNNLSIMILALRPSDEGTYECVVMKYEKDAFKREHLAEVTLSVKADFPTPSISDFEIPTSNIRRIICSTSGGFPEPHLSWLENGEELNAINTTVSQDPETELYAVSSKLDFNMTTNHSFMCLIKYGHLRVNQTFNWNTTKQEHFPDNLLPSWAITLISVNGIFVICCLTYCFAPRCRERRRNERLRRESVRPV

>  <CD28 Fold change to WT CD80>
0.5

$$$$
>  <molecule>
H18Y/E35D/V68M/T79M/L85M (protein, UniProt P33681 35-288, looked up, variant H18Y E35D V68M T79M L85M) T-lymphocyte activation …: VIHVTKEVKEVATLSCGYNVSVEELAQTRIYWQKDKKMVLTMMSGDMNIWPEYKNRTIFDITNNLSIMILALRPSDEGMYECVVMKYEKDAFKREHLAEVTLSVKADFPTPSISDFEIPTSNIRRIICSTSGGFPEPHLSWLENGEELNAINTTVSQDPETELYAVSSKLDFNMTTNHSFMCLIKYGHLRVNQTFNWNTTKQEHFPDNLLPSWAITLISVNGIFVICCLTYCFAPRCRERRRNERLRRESVRPV

>  <CD28 Fold change to WT CD80>
33.2

$$$$
>  <molecule>
H18Y/V22D/E35D/M47V/N48K/V68M (protein, UniProt P33681 35-288, looked up, variant H18Y V22D E35D M47V N48K V68M) T-lymphocyte activation …: VIHVTKEVKEVATLSCGYNVSDEELAQTRIYWQKDKKMVLTMMSGDVKIWPEYKNRTIFDITNNLSIMILALRPSDEGTYECVVLKYEKDAFKREHLAEVTLSVKADFPTPSISDFEIPTSNIRRIICSTSGGFPEPHLSWLENGEELNAINTTVSQDPETELYAVSSKLDFNMTTNHSFMCLIKYGHLRVNQTFNWNTTKQEHFPDNLLPSWAITLISVNGIFVICCLTYCFAPRCRERRRNERLRRESVRPV

>  <CD28 Fold change to WT CD80>
8.2

$$$$
>  <molecule>
E35D/M47V/N48KN68M/A71G/L85M (protein) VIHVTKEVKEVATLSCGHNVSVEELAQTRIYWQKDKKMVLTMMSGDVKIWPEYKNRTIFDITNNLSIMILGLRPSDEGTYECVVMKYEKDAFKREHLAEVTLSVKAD

>  <CD28 Fold change to WT CD80>
9.6

$$$$
>  <molecule>
T13R/Q33L/E35D/M47V/T62S/V68M/L85M (protein, UniProt P33681 35-288, looked up, variant T13R Q33L E35D M47V T62S V68M L85M) T-lymphocyte activation …: VIHVTKEVKEVARLSCGHNVSVEELAQTRIYWLKDKKMVLTMMSGDVNIWPEYKNRTIFDISNNLSIMILALRPSDEGTYECVVMKYEKDAFKREHLAEVTLSVKADFPTPSISDFEIPTSNIRRIICSTSGGFPEPHLSWLENGEELNAINTTVSQDPETELYAVSSKLDFNMTTNHSFMCLIKYGHLRVNQTFNWNTTKQEHFPDNLLPSWAITLISVNGIFVICCLTYCFAPRCRERRRNERLRRESVRPV

>  <CD28 Fold change to WT CD80>
0.5

$$$$
